Cited source for all entries: patent US9856279B2

Assay system: IDH1 R132H (Homo sapiens, UniProt O75874, R132H)
Sequence (O75874 whole entry R132H): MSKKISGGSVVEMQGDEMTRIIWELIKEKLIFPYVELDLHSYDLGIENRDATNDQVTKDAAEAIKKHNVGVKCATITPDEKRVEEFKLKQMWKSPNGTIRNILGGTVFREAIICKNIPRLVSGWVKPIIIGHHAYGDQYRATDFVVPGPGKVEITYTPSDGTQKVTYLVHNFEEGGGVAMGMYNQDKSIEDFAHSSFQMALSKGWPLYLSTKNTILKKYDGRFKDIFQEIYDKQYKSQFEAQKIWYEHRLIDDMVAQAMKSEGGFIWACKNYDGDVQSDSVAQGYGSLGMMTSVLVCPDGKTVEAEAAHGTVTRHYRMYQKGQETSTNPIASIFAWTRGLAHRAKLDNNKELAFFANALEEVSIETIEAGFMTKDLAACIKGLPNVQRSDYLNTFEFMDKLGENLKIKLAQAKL
Method description: Assay for IDH1 R132H inhibitors (NADPH/aKG, resazurin detection)
Type: biochemical
Reported conditions: Table 3; enzyme assay, 50 minutes at room temperature; read-out: IC50 (IDH1 R132H Inhibition)
pIC50: −log10 of the molar value.
Kindly state pIC50 for each of the entries shown.

Lookup: Endpoint output: pIC50 of CCc1ccc(-c2cc(C#N)c(N3CCN(C(=O)CCOC)[C@H](C)C3)nc2C(C)C)cc1 . Value?
Found: 5.30 to 6.00

Lookup: Subsequent entry: CC(C)c1nc(N2CCN(C(=O)c3ccoc3)[C@H](C)C2)c(C#N)cc1-c1cccc(F)c1
Found: 5.30 to 6.00

Lookup: Next compound up: COc1ccccc1-c1cc(C(C)C)nc(N2CCN(C(=O)Cc3ccccc3)CC2)c1C#N
Found: 4.82 to 5.30

Lookup: Follow-up item: COCCC(=O)N1CCN(c2nc(C(C)C)c(-c3ccc(OC)c(OC)c3)cc2C#N)C[C@H]1C
Found: ≥ 6.00

Lookup: Please give the result for CC(C)c1nc(N2CCN(C(=O)c3ccoc3)CC2)c(C#N)cc1-c1ccccc1 too.
Found: 4.82 to 5.30

Lookup: Next compound: CC(C)c1cc(-c2ccccc2)c(C#N)c(N2CCN(C(=O)Cc3ccccc3)[C@@H](C)C2)n1
Found: 5.30 to 6.00

Lookup: Same question, CC(C)c1cc(-c2ccccc2)nc(N2CCN(C(=O)c3ccoc3)C(C)C2)c1C#N (centres unmarked) this time
Found: 4.82 to 5.30

Lookup: Try this compound too: COCCC(=O)N1CCN(c2nc(C(C)C)c(-c3ccc(Cl)cc3)cc2C#N)C[C@H]1C
Found: 5.30 to 6.00
